Target: T1, GFP-9S library array, motif 4 ND N98P;D124T (synthetic construct, N98P;D124T)
T1 chain: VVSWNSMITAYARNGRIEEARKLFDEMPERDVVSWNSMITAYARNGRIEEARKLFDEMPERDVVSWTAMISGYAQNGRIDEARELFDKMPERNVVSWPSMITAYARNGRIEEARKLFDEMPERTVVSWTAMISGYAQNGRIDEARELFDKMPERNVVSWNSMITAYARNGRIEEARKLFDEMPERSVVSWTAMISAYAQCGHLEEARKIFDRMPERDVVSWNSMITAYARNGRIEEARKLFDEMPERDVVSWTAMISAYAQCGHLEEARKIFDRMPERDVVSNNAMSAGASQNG
Test: high-throughput RNA pulldown from lysate on Ni-NTA beads; HRP: 50 mM Tris pH 8, 150 mM NaCl, 1 mM beta-mercaptoethanol, 50 ug/ml BSA, 3 ug/ml yeast RNA, 0.5% heparin; ITC and FP: Tris pH 8, 200 mM KCl, 5% glycerol; MST: 50 mM Tris pH 8, 200 mM NaCl, 1 mM DTT, BSA, heparin, 0.05% Tween 20
Conditions: tags: N-terminal His-eGFP; label: 5' Cy5
Measurement Kind: pKd
Answers are plain numbers, as −log10 of the molar value.

# Binder, pKd
measured = [
    ("AUUACACGUGA (ssRNA) [Cy5-rpoA]", 6.76),
]

// pKd lookup, key: AUUAGACGUGA (ssRNA) [Cy5-rpoA-G] 6.75

The measured values listed here are drawn from paper PMC8809517.
